Hey, just so you know, these numbers are from PubChem BioAssay (NCATS).

Assay: qHTS of pediatric cancer cell lines to identify multiple opportunities for drug repurposing: Primary screen for MG 63 (6-TG R) cells (AID 1347105); note: nearly all actives have a fitted effect of over 50% in size
Conditions: MG 63 (6-TG R) viability, CellTiter-Glo, 48 h; series mostly up to 46 µM
Results filed as inconclusive are left out. Activity calls are given as the source filed them. Calls come from the whole dose curve; as a rule, active = well fitted cell-killing curve with a large enough effect; inconclusive = small, poorly fitted or top-dose-only effect; inactive = no such curve, though single readings can be large or run the other way.
Thanks in advance; please answer with one of these: active, inactive

Hey, what did the test say about `CCCN(CCc1cccs1)[C@H]1CCc2c(O)cccc2C1` ?
inactive

Next molecule: COP(=O)(OC)OC(c1ccc(Cl)cc1)P(=O)(OC)OC (stereo unspecified)
inactive

// same read-out, input: `COc1ccc(S(=O)(=O)N2c3ccc(Cl)cc3[C@@](O)(c3ccccc3Cl)[C@H]2C(=O)N2CCC[C@@H]2C(N)=O)cc1OC`
inactive

Entry `CC(C)n1c(/C=C/[C@@H](O)C[C@@H](O)CC(=O)O)c(-c2ccc(F)cc2)c2ccccc21` please
active

Query `NCCNc1cccc2ccccc12` next
inactive

Record: COC(=O)C(c1ccccc1Cl)N1CCc2sccc2C1 (stereo unspecified)
inactive

Next: `O=C(CCCN1CC=C(n2c(=O)[nH]c3ccccc32)CC1)c1ccc(F)cc1`
inactive

Would you mind doing `C/C=C/C=N/NC(=O)c1ccncc1` as well?
inactive

Next up: `CC(=O)NCCCCCC(=O)O`
inactive

Moving on to the next molecule: `CN(CCCN1c2ccccc2CCc2ccccc21)CC(=O)c1ccc(Cl)cc1`
inactive

Param item: CC(C(=O)O)c1cccc(Oc2ccccc2)c1 (stereo unspecified)
inactive

====

Test system: P94_40
Assay: qHTS profiling for inhibitors of Plasmodium falciparum proliferation (AID 504749); note: nearly all actives have a fitted effect of over 60% in size; note: potency is the fitted concentration of half-maximal effect
Conditions: P. falciparum in erythrocytes, SYBR Green DNA, 72 h; series mostly up to 28.7 µM
Method: NIH National Institute of Allergy and Infectious Diseases [NIAID] NIH Chemical Genomics Center [NCGC] […] Because mature erythrocytes lack DNA, only Plasmodium-derived DNA is detected. NCGC Assay Protocol Summary: The SYBR Green viability assay was adapted from a method described previously (Plouffe et al., 2008). […] The following morning, fluorescence intensity at 485(14) nm excitation and 535(25) nm emission wavelengths was measured on an EnVision (Perkin Elmer) plate reader. […]
Records with an inconclusive call do not appear. The source made the active and inactive calls. Calls follow the shape of the dose curve; as a rule, active = well fitted inhibition curve with a large enough effect; inconclusive = small, poorly fitted or top-dose-only effect; inactive = flat fitted curve, though single readings scatter.
readout-name: Potency

{"columns": ["compound", "Potency"],
 "data": [
  ["O=C(Nc1ncc([N+](=O)[O-])s1)c1cccs1", "inactive"],
  ["CCN(CC)CCNc1ccc(CO)c2sc3ccccc3c(=O)c12", "1.58 µM (active)"],
  ["CC1=C(C(=O)O)N2C(=O)[C@@H](NC(=O)[C@H](N)c3ccccc3)[C@H]2SC1", "inactive"],
  ["O=C(O)C(Cc1cc(I)c(O)c(I)c1)c1ccccc1 (stereo unspecified)", "inactive"],
  ["CC(=O)Nc1ccc(S(=O)(=O)Nc2ccc([N+](=O)[O-])cc2)cc1", "inactive"]
]}

Now for another entry.
Given the entry `CCCCCCCCOc1ccc(C(=O)c2ccccc2)c(O)c1` , report its measured Potency.
inactive

====

Test system: CP286
Assay: qHTS profiling for inhibitors of Plasmodium falciparum proliferation (AID 504749); note: nearly all actives have a fitted effect of over 60% in size; note: potency is the fitted concentration of half-maximal effect
Conditions: P. falciparum in erythrocytes, SYBR Green DNA, 72 h; series mostly up to 28.7 µM
Results filed as inconclusive are left out. Active and inactive are the calls of the source. Calls follow the shape of the dose curve; as a rule, active = well fitted inhibition curve with a large enough effect; inconclusive = small, poorly fitted or top-dose-only effect; inactive = flat fitted curve, though single readings scatter.
readout-name: Potency

Some molecules with recorded Potency:
{"columns": ["molecule", "readout-name", "observed-result"],
 "data": [
  ["FC1(F)C(F)(F)C(F)(F)C2(F)C(F)(F)C(F)(F)C(F)(F)C(F)(F)C2(F)C1(F)F (configuration not stated)", "Potency", "inactive"],
  ["CCCCCCCCCCCCCC[N+](C)(C)Cc1ccccc1", "Potency", "3.16 µM (active)"],
  ["CN(CCCN1c2ccccc2CCc2ccccc21)CC(=O)c1ccc(Cl)cc1", "Potency", "7.08 µM (active)"],
  ["CCc1ccc(C(=O)C(C)CN2CCCCC2)cc1 (configuration not stated)", "Potency", "inactive"],
  ["CC(=O)N[C@@H](CCC(=O)O)C(=O)O", "Potency", "inactive"],
  ["CC(=O)NO", "Potency", "inactive"],
  ["CN1CCN(C2=Nc3cc(F)ccc3Cc3ccccc32)CC1", "Potency", "inactive"],
  ["Cc1ncc(CO)c(C=O)c1O", "Potency", "inactive"]
]}

Can you look up the measured Potency of `CC(C)Cn1cnc2c1c(=O)n(C)c(=O)n2C` for me?
inactive
